target: Cytochrome P450 2D6 (Homo sapiens) (UniProt P10635); test: Cytochrome panel assay with activity outcomes; settings: recombinant CYP, pro-luciferin dealkylation, luminescence, p450-cyp2d6; series mostly up to 57.1 µM
Sequence (P10635 whole entry, looked up): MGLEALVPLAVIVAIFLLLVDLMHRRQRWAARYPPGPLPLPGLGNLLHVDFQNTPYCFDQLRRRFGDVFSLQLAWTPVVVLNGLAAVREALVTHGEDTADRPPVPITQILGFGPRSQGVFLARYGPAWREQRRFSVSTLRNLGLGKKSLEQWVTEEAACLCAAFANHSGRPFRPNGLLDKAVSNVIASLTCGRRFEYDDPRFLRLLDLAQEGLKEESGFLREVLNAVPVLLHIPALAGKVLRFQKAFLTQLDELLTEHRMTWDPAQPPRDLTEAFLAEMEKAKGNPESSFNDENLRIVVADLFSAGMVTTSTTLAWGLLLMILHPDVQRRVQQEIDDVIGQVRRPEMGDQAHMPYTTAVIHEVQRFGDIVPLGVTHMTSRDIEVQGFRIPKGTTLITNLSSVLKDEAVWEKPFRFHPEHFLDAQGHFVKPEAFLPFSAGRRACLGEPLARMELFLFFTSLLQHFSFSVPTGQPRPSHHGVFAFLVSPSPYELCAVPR
The whole screen tested about 16,000 compounds, of which about 2,600 (16%) were called active. Not shown: some 20% with an inconclusive outcome. These entries were drawn from the full list.
endpoint: AC50

Consider the reported AC50 for these molecules:
* CCOC(=O)c1c(C)c(C(=O)N2CCN(C(=O)c3ccco3)CC2)c(C)n1C | inactive
* O=C(CSCc1cccc(Cl)c1)N/N=C/c1ccc(OCC(=O)N2CCCCC2)cc1 | 17.8 µM (active)
* O=C(Nc1ccc2oc(-c3ccccc3F)nc2c1)c1ccc2c(c1)OCCO2 | inactive
* CN1CCN(c2ncc3nc(-c4cccs4)c(=O)n(C[C@H]4CCCO4)c3n2)CC1 | inactive
* COc1cccc(OCc2nnc(SCC(=O)NCc3ccco3)n2C)c1 | inactive

Query (molecule): CC1Cc2ccccc2N1C(=O)CSc1nnnn1C(C)C (centres undefined) ; field requested: AC50 inactive

Query (molecule): CC(C)[C@H](NC(=O)OC(C)(C)C)[C@@H](O)CC(=O)OC(C)(C)C ; field requested: AC50 3.16 µM (active)

Query (molecule): Cn1c(=O)c(-c2ccc(Cl)cc2)nc2cnc(Oc3cccc(Cl)c3)nc21 ; field requested: AC50 inactive

Query (molecule): NCCS ; field requested: AC50 inactive

---

biological target: Cytochrome P450 2D6 (Homo sapiens); experiment: Cytochrome panel assay with activity outcomes; conditions: recombinant CYP, pro-luciferin dealkylation, luminescence, p450-cyp2d6; series mostly up to 57.1 µM
Hit rate of the full screen: of about 16,000 compounds, about 2,600 (16%) were called active. About 20% were inconclusive and are not listed. Only a sample is shown.
endpoint: AC50

Consider the reported AC50 for these compounds:
- COC(=O)c1ccc(/C=N\NC(=O)c2ccc(C)cc2Cl)cc1: inactive
- CCCOC(=O)c1c(NC(=O)/C=C/c2cnn(C)c2C)sc(C(=O)OCC)c1C: inactive
- C/C(=N\OC(=O)c1cccc(C)c1)c1sc(-c2ccccc2)nc1C: inactive
- CCCn1nnnc1-c1cc(Cl)cc(Cl)c1: inactive
- Cc1ccc(CNC(=O)CCNS(=O)(=O)c2ccc3c(c2)c(=O)n(C)c(=O)n3C)cc1: inactive

Query (compound): CCOC(=O)c1cc(NC(=O)c2ccc(OC)cc2)c(=O)oc1-c1ccccc1 ; field requested: AC50 inactive

Query (compound): O=C1C(O)=C(O)C(=O)C(O)=C1O ; field requested: AC50 inactive

Query (compound): O=C(CSCc1c(Cl)cccc1Cl)NCc1cccnc1 ; field requested: AC50 15.8 µM (active)

Query (compound): Cc1sc(NC(=O)c2ccccc2)c(C(=O)NCCN(C)C)c1C ; field requested: AC50 14.1 µM (active)

Query (compound): Cn1c(=O)c2cc(S(=O)(=O)NCCC(=O)Nc3ccc(Cl)cc3)ccc2n(C)c1=O ; field requested: AC50 inactive

Query (compound): Cc1[nH]nc(-c2ccc(OCc3cnn(-c4ccccc4)c3)cc2O)c1Oc1ccc(F)cc1 ; field requested: AC50 7.08 µM (active)

Query (compound): Cc1cc(NC(=O)C2CCCCC2)nc2c1c(=O)oc1ccccc12 ; field requested: AC50 20 µM (active)

Query (compound): Cc1ccc2c(c1)/C(=N/OC(=O)c1ccc(F)cc1)CCS2 ; field requested: AC50 inactive

Query (compound): COc1ccccc1CNc1ccnc(-c2ccccc2Cl)n1 ; field requested: AC50 12.6 µM (active)

Query (compound): COC(=O)c1ccc(Oc2coc3cc(OCc4cnn(-c5ccccc5)c4)ccc3c2=O)cc1 ; field requested: AC50 inactive

Query (compound): O=C(CCc1ccccc1)NCc1cccnc1 ; field requested: AC50 inactive

Query (compound): Cn1c(=O)c2cc(S(=O)(=O)NCCC(=O)NCCc3ccc(Cl)cc3)ccc2n(C)c1=O ; field requested: AC50 15.8 µM (active)

Query (compound): CC(/C=N\NC(=O)Cn1c(C)nc2ccccc21)=C\c1ccccc1 ; field requested: AC50 inactive

Query (compound): Cc1ccccc1NC(=O)c1cccc2nc3ccccc3nc12 ; field requested: AC50 inactive

Query (compound): O=C(c1ccccc1)N(Cc1ccco1)C1CCS(=O)(=O)C1 (configuration not stated) ; field requested: AC50 inactive

Query (compound): Cc1cc(C)c2[nH]c(=O)c(CN(Cc3ccco3)C(=O)c3cccs3)cc2c1 ; field requested: AC50 inactive

Query (compound): CCC(CC)C(=O)Nc1cccc(C(=O)Nc2ccc(OC)cc2[N+](=O)[O-])c1 ; field requested: AC50 inactive
